subject_of_test: Inhibitor of nuclear factor kappa-B kinase subunit alpha (Homo sapiens, UniProt O15111)
Sequence (O15111 whole entry): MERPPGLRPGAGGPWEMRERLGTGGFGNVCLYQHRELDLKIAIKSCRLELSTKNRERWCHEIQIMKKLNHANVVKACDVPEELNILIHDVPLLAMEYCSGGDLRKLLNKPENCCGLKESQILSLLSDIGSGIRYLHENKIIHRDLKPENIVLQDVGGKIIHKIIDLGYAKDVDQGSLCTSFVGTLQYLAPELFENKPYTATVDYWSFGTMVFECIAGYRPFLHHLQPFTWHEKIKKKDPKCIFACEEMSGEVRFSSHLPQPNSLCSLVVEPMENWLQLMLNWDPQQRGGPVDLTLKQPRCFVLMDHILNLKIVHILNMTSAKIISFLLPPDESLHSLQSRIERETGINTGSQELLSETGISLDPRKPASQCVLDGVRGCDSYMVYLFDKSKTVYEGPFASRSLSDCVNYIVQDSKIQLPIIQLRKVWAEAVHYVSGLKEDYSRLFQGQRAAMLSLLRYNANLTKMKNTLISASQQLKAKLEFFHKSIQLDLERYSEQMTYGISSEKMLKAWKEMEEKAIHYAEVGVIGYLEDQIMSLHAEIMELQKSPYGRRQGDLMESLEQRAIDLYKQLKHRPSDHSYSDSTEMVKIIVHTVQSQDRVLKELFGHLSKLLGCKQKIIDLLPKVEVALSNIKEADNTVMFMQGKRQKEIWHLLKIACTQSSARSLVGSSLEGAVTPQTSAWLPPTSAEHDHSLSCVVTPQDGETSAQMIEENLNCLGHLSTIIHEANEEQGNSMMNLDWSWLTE
assay_comment: Inhibition of recombinant human N-terminal GST-tagged IKKalpha (1 to 745 residues) expressed in baculovirus expression system using biotinylated IkBalpha as substrate after 60 mins by DELFIA
assay_endpoint: Ki (µM)
Write the value in µM as a bare number.

Example compounds with recorded Ki:
N#Cc1c[nH]c2nc(N)nc(-c3ccccc3O)c12
15
N#Cc1c[nH]c2nc(N)nc(N3CCN(CCCO)CC3)c12
12.1
N#Cc1c[nH]c2nc(N)nc(N3CCC(S(N)(=O)=O)CC3)c12
5.3
N#Cc1c[nH]c2nc(N)nc(-c3ccc(F)cc3)c12
10
N#Cc1c[nH]c2nc(N)nc(NC3CCCCC3)c12
1.8

I would be grateful if you could share the reported Ki for `N#Cc1c[nH]c2nc(N)nc(NCC3CC3)c12` .
16

I would be grateful if you could share the reported Ki for `N#Cc1c[nH]c2nc(N)nc(NCc3ccccc3)c12` .
5.3

I would be grateful if you could share the reported Ki for `N#Cc1c[nH]c2nc(N)nc(-c3ccc(C(N)=O)cc3)c12` .
16

###

subject_of_test: Inhibitor of nuclear factor kappa-B kinase subunit alpha (Homo sapiens, UniProt O15111)
Sequence (O15111 whole entry): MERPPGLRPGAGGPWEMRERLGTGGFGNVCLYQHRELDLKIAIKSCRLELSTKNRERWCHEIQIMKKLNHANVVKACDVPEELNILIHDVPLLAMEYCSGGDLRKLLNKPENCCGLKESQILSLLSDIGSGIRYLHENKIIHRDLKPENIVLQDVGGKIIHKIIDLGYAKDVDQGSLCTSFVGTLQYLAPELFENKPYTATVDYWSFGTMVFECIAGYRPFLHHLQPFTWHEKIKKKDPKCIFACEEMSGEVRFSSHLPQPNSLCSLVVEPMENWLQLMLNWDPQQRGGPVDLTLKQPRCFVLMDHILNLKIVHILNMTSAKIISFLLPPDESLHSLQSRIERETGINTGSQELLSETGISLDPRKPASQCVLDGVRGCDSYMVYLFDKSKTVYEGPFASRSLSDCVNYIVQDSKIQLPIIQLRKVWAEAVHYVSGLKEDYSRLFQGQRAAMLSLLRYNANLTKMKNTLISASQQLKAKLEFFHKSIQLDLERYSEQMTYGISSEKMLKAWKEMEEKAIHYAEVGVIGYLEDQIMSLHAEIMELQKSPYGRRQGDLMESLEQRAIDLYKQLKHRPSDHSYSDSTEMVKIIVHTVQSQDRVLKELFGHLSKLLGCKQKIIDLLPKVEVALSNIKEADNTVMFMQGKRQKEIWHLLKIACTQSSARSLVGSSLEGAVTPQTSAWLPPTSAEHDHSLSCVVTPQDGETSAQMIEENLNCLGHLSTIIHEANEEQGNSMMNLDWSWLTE
assay_comment: Inhibition of recombinant human N-terminal GST-tagged IKKalpha (1 to 745 residues) expressed in baculovirus expression system using biotinylated IkBalpha as substrate after 60 mins by DELFIA
assay_endpoint: pKi
# pKi = -log10(concentration in molar units)

I would be grateful if you could share the reported pKi for `N#Cc1c[nH]c2nc(N)nc(-c3cccc(O)c3)c12` .
5.62

I would be grateful if you could share the reported pKi for `N#Cc1c[nH]c2nc(N)nc(-c3ccc(S(N)(=O)=O)cc3)c12` .
7.10

I would be grateful if you could share the reported pKi for `N#Cc1c[nH]c2nc(N)nc(-c3ccccc3)c12` .
5.77

I would be grateful if you could share the reported pKi for `N#Cc1c[nH]c2nc(N)nc(N3CCC[C@H]3CO)c12` .
5.51

I would be grateful if you could share the reported pKi for `N#Cc1c[nH]c2nc(N)nc(N3CC[C@H](O)C3)c12` .
5.22

I would be grateful if you could share the reported pKi for `N#Cc1c[nH]c2nc(N)nc(-c3cccc(F)c3)c12` .
5.11

I would be grateful if you could share the reported pKi for `N#Cc1c[nH]c2nc(N)nc(-c3ccc(O)cc3)c12` .
5.80

I would be grateful if you could share the reported pKi for `N#Cc1c[nH]c2nc(N)nc(NCCO)c12` .
5.80

###

subject_of_test: Inhibitor of nuclear factor kappa-B kinase subunit alpha (Homo sapiens, UniProt O15111)
assay_comment: Inhibition of recombinant human N-terminal GST-tagged IKKalpha (1 to 745 residues) expressed in baculovirus expression system using biotinylated IkBalpha as substrate after 60 mins by DELFIA
assay_endpoint: Ki (µM)
Write the value in µM as a bare number.

N#Cc1c[nH]c2nc(N)nc(-c3cccc(CO)c3)c12
9.8
Nc1nc(-c2ccc(S(N)(=O)=O)cc2)c2cc[nH]c2n1
2.9
N#Cc1c[nH]c2nc(N)nc(-c3ccc(CO)cc3)c12
0.65
N#Cc1c[nH]c2nc(N)nc(-c3cccc(S(N)(=O)=O)c3)c12
5.3
N#Cc1c[nH]c2nc(N)nc(N3CCC[C@@H]3CO)c12
2.5

Pending compound:
I would be grateful if you could share the reported Ki for `N#Cc1c[nH]c2nc(N)nc(Nc3ccccc3)c12` .
13

###

subject_of_test: Inhibitor of nuclear factor kappa-B kinase subunit beta (Homo sapiens, UniProt O14920)
Sequence (O14920 whole entry): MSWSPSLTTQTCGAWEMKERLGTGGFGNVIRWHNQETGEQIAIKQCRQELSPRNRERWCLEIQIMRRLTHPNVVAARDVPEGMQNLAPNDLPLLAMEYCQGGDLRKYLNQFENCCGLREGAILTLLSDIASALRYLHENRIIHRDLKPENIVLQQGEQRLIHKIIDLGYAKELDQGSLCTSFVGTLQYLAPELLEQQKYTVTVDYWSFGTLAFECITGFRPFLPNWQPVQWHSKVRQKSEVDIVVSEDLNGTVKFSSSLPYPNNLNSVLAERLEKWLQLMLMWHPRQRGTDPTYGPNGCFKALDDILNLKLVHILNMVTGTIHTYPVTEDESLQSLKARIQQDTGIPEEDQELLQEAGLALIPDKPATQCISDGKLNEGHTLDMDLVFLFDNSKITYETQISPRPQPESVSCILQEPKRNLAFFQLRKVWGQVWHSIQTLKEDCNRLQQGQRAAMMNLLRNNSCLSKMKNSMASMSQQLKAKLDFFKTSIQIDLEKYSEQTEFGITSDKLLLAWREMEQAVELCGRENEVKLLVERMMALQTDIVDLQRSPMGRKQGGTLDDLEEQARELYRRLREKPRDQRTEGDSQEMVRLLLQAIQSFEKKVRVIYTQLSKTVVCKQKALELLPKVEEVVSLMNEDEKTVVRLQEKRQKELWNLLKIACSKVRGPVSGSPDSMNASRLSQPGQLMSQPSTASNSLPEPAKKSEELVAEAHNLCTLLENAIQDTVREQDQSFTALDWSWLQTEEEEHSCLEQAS
assay_comment: Inhibition of recombinant full length human IKKbeta expressed in baculovirus infected sf9 insect cells using biotinylated IkBalpha as substrate after 60 mins by DELFIA
pKi: −log10 of the molar value.
// reported pKi per item

Example molecules with recorded pKi:
CNc1nc(N)nc2[nH]cc(C#N)c12
< 4.52
Nc1nc(Cl)c2cc[nH]c2n1
< 4.52
Nc1nc(NC2CCCCC2)c2c(C(F)(F)F)c[nH]c2n1
< 4.52
N#Cc1c[nH]c2nc(N)nc(N3CCC(S(N)(=O)=O)CC3)c12
5.23
N#Cc1c[nH]c2nc(N)nc(N3CCCCC3)c12
< 4.52

I would be grateful if you could share the reported pKi for `N#Cc1c[nH]c2nc(N)nc(N3CC[C@H](O)C3)c12` .
< 4.52

I would be grateful if you could share the reported pKi for `NS(=O)(=O)c1ccc(-c2ncnc3[nH]ccc23)cc1` .
5.60

###

subject_of_test: Inhibitor of nuclear factor kappa-B kinase subunit alpha (Homo sapiens, UniProt O15111)
assay_comment: Inhibition of recombinant human N-terminal GST-tagged IKKalpha (1 to 745 residues) expressed in baculovirus expression system using biotinylated IkBalpha as substrate after 60 mins by DELFIA
pKi: −log10 of the molar value.
assay_endpoint: pKi

Example molecules with recorded pKi:
N#Cc1c[nH]c2nc(N)nc(-c3ccccc3S(N)(=O)=O)c12
< 4.52
N#Cc1c[nH]c2nc(N)nc(-c3cccc(C(N)=O)c3)c12
< 4.52
NC(=O)c1c[nH]c2nc(N)nc(N[C@H]3CC[C@H](O)CC3)c12
< 4.52
N#Cc1c[nH]c2nc(N)nc(N(CCO)C3CCCCC3)c12
< 4.52
N#Cc1c[nH]c2nc(N)nc(N)c12
< 4.52

I would be grateful if you could share the reported pKi for `N#Cc1c[nH]c2nc(N)nc(Nc3ccc(C(=O)O)cc3)c12` .
< 4.52

I would be grateful if you could share the reported pKi for `N#Cc1c[nH]c2nc(N)nc(N3CCOCC3)c12` .
< 4.52

I would be grateful if you could share the reported pKi for `CN1CCN(c2nc(N)nc3[nH]cc(C#N)c23)CC1` .
< 4.52
